# tested_system: T1, cardiotoxin 1 (CTX1) (Naja atra (Taiwan cobra), UniProt P60304 22-81)
# T1 sequence: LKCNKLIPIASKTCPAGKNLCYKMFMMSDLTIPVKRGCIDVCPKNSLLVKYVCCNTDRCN
# protocol: fluorescence quenching titration; 10 mM Tris-HCl pH 7.5, 1 mM EDTA, 100 mM NaCl; temperature not stated; fluorescence with 4 nM aptamer (ex 480/em 520 nm); EMSA with 5 uM aptamer, 20 min, 2% agarose, TAE
# condition_description: protein: native; tags: none; label: 5'-FAM
pKd: −log10 of the molar value.
quantity: pKd

# binder, reported_result
measured = [
    ("GCGAGGTGTTCGAGAGTTAGGGCGACATGACCAAACGTT (ssDNA) [FAM-bgt1]", 5.60),
]
